Tested on: P. falciparum K1 strain
measurement protocol: [3H]hypoxanthine drug sensitivity assay, K1 strain
Format: cell-based
assay conditions: Plasmodium falciparum, K1; read-out: IC50 K1
Quick rule for you: IC50 under 0.2 µg/mL gets 1, anything else gets 0.

- compound: "CN(CCCN1CC(=O)N2[C@H](c3ccc4c(c3)OCO4)c3[nH]c4ccccc4c3C[C@@H]2C1=O)Cc1ccccc1"
  classification: 1
- compound: "COc1ccc(CN2CC[C@@H](N3CC(=O)N4[C@H](c5ccc6c(c5)OCO6)c5[nH]c6ccccc6c5C[C@@H]4C3=O)C2)cc1"
  classification: 1
- compound: "O=C1[C@H]2Cc3c([nH]c4ccccc34)[C@H](c3ccc4nsnc4c3)N2C(=O)CN1[C@@H]1CCN(Cc2ccccc2)C1 [Compound 70t]"
  classification: 0
- compound: "Cn1ccnc1CN1CCC(N2CC(=O)N3[C@H](Cc4c([nH]c5ccccc45)[C@@H]3Cc3ccccc3)C2=O)CC1 [Compound 91t]"
  classification: 0
- compound: "Cn1ccnc1CN1CC[C@@H](N2CC(=O)N3[C@H](c4ccc5c(c4)OCO5)c4[nH]c5ccccc5c4C[C@@H]3C2=O)C1"
  classification: 1
- compound: "O=C1[C@H]2Cc3c([nH]c4ccccc34)[C@@H](c3ccc(Cl)nc3)N2C(=O)CN1[C@@H]1CCN(Cc2ccccc2)C1 [Compound 84c]"
  classification: 1
- compound: "O=C1[C@H]2Cc3c([nH]c4ccccc34)[C@@H](c3ccc4c(c3)OCO4)N2C(=O)CN1[C@@H]1CCN(Cc2ccc3c(c2)OCO3)C1"
  classification: 1
- compound: "O=C1[C@H]2Cc3c([nH]c4ccccc34)[C@H](Cc3ccccc3)N2C(=O)CN1C1CCN(Cc2ccccc2)CC1 [Compound 89t]"
  classification: 0
- compound: "O=C1[C@H]2Cc3c([nH]c4ccccc34)[C@@H](c3ccc4nsnc4c3)N2C(=O)CN1[C@@H]1CCN(Cc2ccccc2)C1 [Compound 70c]"
  classification: 1
- compound: "CN(CCN1CC(=O)N2[C@H](c3ccc4c(c3)OCO4)c3[nH]c4ccccc4c3C[C@@H]2C1=O)Cc1ccccc1"
  classification: 0
- compound: "O=C1[C@H]2Cc3c([nH]c4ccccc34)[C@@H](c3ccc4c(c3)OCO4)N2C(=O)CN1[C@@H]1CCN(Cc2ccccc2)C1"
  classification: 1
- compound: "Cn1ccnc1CN1CC[C@@H](N2CC(=O)N3[C@@H](c4ccc5c(c4)OCO5)c4[nH]c5ccccc5c4C[C@@H]3C2=O)C1"
  classification: 1

Attribution: patent EP1914235A1
